test.system: Histamine H3 receptor (Cavia porcellus, UniProt Q9JI35)
Sequence (Q9JI35 whole entry): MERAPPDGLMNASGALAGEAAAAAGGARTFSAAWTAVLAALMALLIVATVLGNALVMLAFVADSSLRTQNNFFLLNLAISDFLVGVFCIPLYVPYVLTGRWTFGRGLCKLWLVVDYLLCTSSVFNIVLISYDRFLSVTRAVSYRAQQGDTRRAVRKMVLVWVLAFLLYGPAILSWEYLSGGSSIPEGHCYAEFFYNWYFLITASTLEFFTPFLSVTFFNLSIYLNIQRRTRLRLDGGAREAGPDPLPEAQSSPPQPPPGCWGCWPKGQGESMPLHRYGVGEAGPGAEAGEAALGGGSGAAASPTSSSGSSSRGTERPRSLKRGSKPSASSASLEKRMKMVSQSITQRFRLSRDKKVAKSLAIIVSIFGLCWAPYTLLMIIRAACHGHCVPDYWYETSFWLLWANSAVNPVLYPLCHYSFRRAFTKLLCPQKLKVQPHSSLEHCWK
procedure.text: In vitro binding affinity for histamine H3 receptor was determined in guinea-pig cerebral cortex using [3H](R)-alpha-methylhistamine
Assay type: tissue-based
Mark 1 (yes) only for Ki values smaller than 5 nM; exact matches and larger values are 0 (no).

> print(dat)
                                 test.smiles  label.value
 1     N=C(N)N(CCCCCCCCN1CCCC1)Cc1ccc(Cl)cc1      1 (yes)
 2          CN(C)CCCNS(=O)(=O)c1ccc2ccccc2c1       0 (no)
 3                N=C(NCCCN1CCCC1)NCc1ccccc1       0 (no)
 4         N=C(N)N(CCCCN1CCCC1)Cc1ccc(Cl)cc1       0 (no)
 5            N=C(NCCCN1CCCC1)NCc1ccc(Br)cc1      1 (yes)
 6         N=C(NCCCCCN1CCCC1)NCCc1ccc(Cl)cc1       0 (no)
 7         O=S(=O)(Cc1ccc(Cl)cc1)NCCCN1CCCC1       0 (no)
 8            N=C(NCCCN1CCCC1)NCc1ccc(Cl)cc1       0 (no)
 9  O=[N+]([O-])c1ccc(OCCCN2CCC(Nc3nc4ccccc4s3)CC2)cc1       0 (no)
10                           CN(C)CCCSC(=N)N       0 (no)
11             N=C(NCCCCCN1CCCC1)NCC1CCCCCC1      1 (yes)
12              N=C(NCCCCCN1CCCC1)NCC1CCCCC1      1 (yes)
13  N=C(NCCCCCN1CCCCCCC1)NCC12CC3CC(CC(C3)C1)C2       0 (no)
14          N=C(NCCCCCN1CCCC1)NCc1ccc(Cl)cc1       0 (no)
15        O=S(=O)(NCCCN1CCCC1)NCc1ccc(Cl)cc1       0 (no)
16       N=C(N)N(CCCCCCN1CCCC1)Cc1ccc(Cl)cc1      1 (yes)
17        N=C(N)N(CCCCCN1CCCC1)Cc1ccc(Cl)cc1      1 (yes)
18              N=C(NCCCN1CCCC1)NCc1ccccc1Br       0 (no)
19  N=C(NCCCCCN1CCCCC1)NCC12CC3CC(CC(C3)C1)C2       0 (no)
20      N=C(N)N(CCCCCCCN1CCCC1)Cc1ccc(Cl)cc1      1 (yes)
21           N=C(NCCCN1CCCC1)NCCc1ccc(Cl)cc1      1 (yes)
22             N=C(NCCCN1CCCC1)Nc1ccc(Cl)cc1       0 (no)
23  N=C(NCCCCCN1CCCC1)NCC12CC3CC(CC(C3)C1)C2      1 (yes)
24  N=C(NCCCCCN1CCCCCC1)NCC12CC3CC(CC(C3)C1)C2       0 (no)
25        O=S(=O)(NCCCN1CCCC1)c1ccc2ccccc2c1       0 (no)

---

test.system: UniProt:Q9JI35
procedure.text: Tested in vitro against histamine H3 receptor mediated inhibition of cholinergic neurogenic contractions in isolated guinea pig ileum
Format: functional, tissue-based
Recorded pKB, one value per entry.
experimental.endpoint: pKB

> print(dat)
                                 test.smiles  experimental.result
 1           N=C(NCCCN1CCCC1)NCCc1ccc(Cl)cc1                 6.68
 2  N=C(NCCCCCN1CCCC1)NCC12CC3CC(CC(C3)C1)C2                  7.9
 3           N=C(NCCCCN1CCCC1)NCc1ccc(Cl)cc1                 7.32
 4      N=C(N)N(CCCCCCCN1CCCC1)Cc1ccc(Cl)cc1                 8.38
 5        O=S(=O)(NCCCN1CCCC1)NCc1ccc(Cl)cc1                 6.21
 6             N=C(NCCCN1CCCC1)NCc1ccc(I)cc1                 6.43
 7         N=C(NCCCCCN1CCCC1)NCCc1ccc(Cl)cc1                 7.06
 8       N=C(N)N(CCCCCCN1CCCC1)Cc1ccc(Cl)cc1                 8.39
 9          N=C(NCCCCCN1CCCC1)NCc1ccc(Cl)cc1                  7.3
10  N=C(NCCCCCN1CCCCC1)NCC12CC3CC(CC(C3)C1)C2                 8.14
11              N=C(NCCCN1CCCC1)NCc1ccccc1Br                 6.27
12        O=S(=O)(NCCCN1CCCC1)c1ccc2ccccc2c1                 5.96

---

test.system: Histamine H3 receptor (Cavia porcellus)
procedure.text: Tested in vitro against histamine H3 receptor mediated inhibition of cholinergic neurogenic contractions in isolated guinea pig ileum
Type: functional, tissue-based
Recorded pKB, one value per entry.
experimental.endpoint: pKB

> print(dat)
                                test.smiles  experimental.endpoint  experimental.result
1  N=C(NCCCCCN1CCCCCCC1)NCC12CC3CC(CC(C3)C1)C2                    pKB                 7.37
2                N=C(NCCCN1CCCC1)NCc1ccccc1                    pKB                  6.2
3          N=C(NCCCCN1CCCC1)NCCc1ccc(Cl)cc1                    pKB                 6.24
